experiment_notes: Effect of co-solvents and non-ionic surfactants on posaconazole solubility in 100 mM Captisol
Format: physicochemical
experimental_conditions: Captisol solution with co-solvent, pH 4.5, aqueous with cosolvent or surfactant or cyclodextrin, thermodynamic from solid, 100 mM Captisol pH 4.5 + 10% PVP
result_type: solubility at 3 days
Respond with a number, then the unit of measure.

Consider CC[C@@H]([C@H](C)O)n1ncn(-c2ccc(N3CCN(c4ccc(OC[C@@H]5CO[C@@](Cn6cncn6)(c6ccc(F)cc6F)C5)cc4)CC3)cc2)c1=O . Its measured solubility at 3 days is 640 µg/mL

* * *

experiment_notes: Posaconazole solubility in acidified Captisol solutions
Assay type: physicochemical
experimental_conditions: acidified Captisol solution, pH 3.4, aqueous with cosolvent or surfactant or cyclodextrin, 20% Captisol, pH 3.4
result_type: solubility (µg/mL)
Lab book: enter the figure in µg/mL, no units written.

Consider CC[C@@H]([C@H](C)O)n1ncn(-c2ccc(N3CCN(c4ccc(OC[C@@H]5CO[C@@](Cn6cncn6)(c6ccc(F)cc6F)C5)cc4)CC3)cc2)c1=O [Posaconazole, posaconazole] . Its measured solubility is 5200

* * *

experiment_notes: Effect of co-solvents and non-ionic surfactants on posaconazole solubility in 100 mM Captisol
Type: physicochemical
experimental_conditions: Captisol solution with co-solvent, pH 4.5, aqueous with cosolvent or surfactant or cyclodextrin, thermodynamic from solid, 100 mM Captisol pH 4.5 + 10% Propylene Glycol
result_type: solubility at 3 days (µg/mL)
Lab book: enter the figure in µg/mL, no units written.

Consider CC[C@@H]([C@H](C)O)n1ncn(-c2ccc(N3CCN(c4ccc(OC[C@@H]5CO[C@@](Cn6cncn6)(c6ccc(F)cc6F)C5)cc4)CC3)cc2)c1=O . Its measured solubility at 3 days is 410

* * *

experiment_notes: Posaconazole solubility in acidified Captisol solutions
Format: physicochemical
experimental_conditions: acidified Captisol solution, pH 3.1, aqueous with cosolvent or surfactant or cyclodextrin, 40% Captisol, pH 3.1
result_type: solubility (mg/mL)
Lab book: enter the figure in mg/mL, no units written.

Consider CC[C@@H]([C@H](C)O)n1ncn(-c2ccc(N3CCN(c4ccc(OC[C@@H]5CO[C@@](Cn6cncn6)(c6ccc(F)cc6F)C5)cc4)CC3)cc2)c1=O [Posaconazole, posaconazole] . Its measured solubility is 22.5

* * *

experiment_notes: Effect of co-solvents and non-ionic surfactants on posaconazole solubility in 100 mM Captisol
Assay type: physicochemical
experimental_conditions: Captisol solution with surfactant, pH 4.5, aqueous with cosolvent or surfactant or cyclodextrin, thermodynamic from solid, 100 mM Captisol pH 4.5 + 0.1% Poloxamer F-68
result_type: solubility at 3 days (µg/mL)
Lab book: enter the figure in µg/mL, no units written.

Consider CC[C@@H]([C@H](C)O)n1ncn(-c2ccc(N3CCN(c4ccc(OC[C@@H]5CO[C@@](Cn6cncn6)(c6ccc(F)cc6F)C5)cc4)CC3)cc2)c1=O [Posaconazole, posaconazole] . Its measured solubility at 3 days is 1630

* * *

experiment_notes: Posaconazole solubility in modified β and γ-cyclodextrins
Format: physicochemical
experimental_conditions: pH 4.5, aqueous with cosolvent or surfactant or cyclodextrin, posaconazole solubility
result_type: solubility (µg/mL)
Lab book: enter the figure in µg/mL, no units written.

Consider CC[C@@H]([C@H](C)O)n1ncn(-c2ccc(N3CCN(c4ccc(OC[C@@H]5CO[C@@](Cn6cncn6)(c6ccc(F)cc6F)C5)cc4)CC3)cc2)c1=O . Its measured solubility is 1510
